test system: HeLa cervical adenocarcinoma; assay: Inhibition of cell proliferation (14C-thymidine incorporation), HeLa; type: cell-based; conditions: Homo sapiens
metric: IC50

Past entries and their recorded results:
mol: Nc1nc(Nc2ccc(S(=O)(=O)NC(=O)Cn3cnnn3)cc2)nn1C(=O)c1c(F)cccc1F
system: HeLa cervical adenocarcinoma
metric: IC50
dataValue: > 100 µM

mol: COCCOCCOCC(=O)Nc1nc(Nc2ccc(S(N)(=O)=O)cc2)nn1C(=O)c1c(F)cccc1F
system: HeLa cervical adenocarcinoma
metric: IC50
dataValue: > 100 µM

mol: COCCOCC(=O)NS(=O)(=O)c1ccc(Nc2nc(N)n(C(=O)c3c(F)cccc3F)n2)cc1
system: HeLa cervical adenocarcinoma
metric: IC50
dataValue: > 10 µM

Consider the compound `CN(C)CC(=O)NS(=O)(=O)c1ccc(Nc2nc(N)n(C(=O)c3c(F)cccc3F)n2)cc1` tested on HeLa cervical adenocarcinoma; state its IC50. > 10 µM

Provenance of the data: patent US7888380B2
